Assay: Plasma pharmacokinetics of BI 187004 after single oral doses (LC–MS/MS)
Settings: male, human, plasma, po, 20 mg
Property: AUC(0-t) (µM·h)
Your answer is read as µM·h, so omit the unit and give the number.

Prompt: // query AUC(0-t) value for entry N#Cc1ccc2c(c1)[C@H]1CCCN(C(=O)c3ccc4[nH]cnc4c3)[C@H]1C2
Completion: 9.45

---

Test: Plasma pharmacokinetics of BI 187004 after single oral doses (LC–MS/MS)
Details: male, human, plasma, po, 80 mg, BI 187004 plasma concentrations, 80 mg single oral, planned time 8 h, Min
Property: concentration at 8 h (nM)
Your answer is read as nM, so omit the unit and give the number.

Prompt: // query concentration at 8 h value for entry N#Cc1ccc2c(c1)[C@H]1CCCN(C(=O)c3ccc4[nH]cnc4c3)[C@H]1C2
Completion: 1100
